# Test system: NIH3T3
# test summary: Cytotoxic Profiling of Annotated Libraries Using Quantitative High-Throughput Screening (AID 1296008); note: % is set by controls: 0 for no effect and ±100 for the full control effect; nearly all actives have a fitted effect of over 60% in size
# recorded conditions: Five cell lines viability, CellTiter-Glo ATP luminescence, 48-72 h; hits give low values
Inconclusive results are not listed.
measured property: max response (%)
Quick note: give the figure in %, leave out the unit.

Field: example entries. Status: answers known.
molecule	max response [%]
NC(=S)N/N=C/c1cccnc1	1.77
CCOc1ccc(NC(C)=O)cc1	-7.54
CC(=O)NO	2.47
Cc1cc2c(OCC(CNC(C)(C)C)OC(=O)c3ccccc3)cccc2[nH]1 (stereo not drawn)	2.07
CC(C)[N+](C)(C)CC(O)COc1cccc2ccccc12 (stereo not drawn)	-0.944
OC1C(O)C(O)C(O)C(O)C1O (stereo not drawn)	-6.2

Task: Complete the entry with the larger response for O=C1C(O)=C(O)C(=O)C(O)=C1O
Output: -17.6

Task: Complete the entry with the larger response for NS(=O)(=O)c1cc(C(=O)O)cc(N2CCCC2)c1Oc1ccccc1
Output: -1.53

Task: Complete the entry with the larger response for Cc1ccc(-c2ncc(Cl)cc2-c2ccc(S(C)(=O)=O)cc2)cn1
Output: -3.08

Task: Complete the entry with the larger response for OCCOCCN1CCN(C2=Nc3ccccc3Sc3ccccc32)CC1
Output: -7.78

Task: Complete the entry with the larger response for Nc1nc(N)c(-c2ccccc2)s1
Output: 2.51

Task: Complete the entry with the larger response for NS(=O)(=O)c1cc2c(cc1Cl)NC(CC1CCCC1)NS2(=O)=O (stereo not drawn)
Output: 2.98

Task: Complete the entry with the larger response for COc1ccccc1N1CCN(CCCCNC(=O)c2ccc(-c3ccc(C(C)=O)cc3)cc2)CC1
Output: -11

###

# Test system: Tov-21-G
# test summary: Primary qHTS to identify gynecologic anti-cancer compounds using libraries of approved drugs and bioactive compounds (AID 1345084); note: % is set by controls: 0 for no effect and ±100 for the full control effect; nearly all actives have a fitted effect of over 55% in size
# recorded conditions: Gynecologic cancer cell panel viability, ATPlite luminescence, 48 h; series mostly up to 57.5 µM
Results filed as inconclusive are left out. Active and inactive are the calls of the source. The call rests on the fitted dose curve; in most records, active means well fitted cell-killing curve with a large enough effect; inconclusive means small, poorly fitted or top-dose-only effect, or effect the other way; inactive means flat fitted curve, though single readings scatter.
Please answer using one outcome listed in active, inactive

Please review the following examples before continuing.
compound	tested target	group
CO[C@]12C[C@@H](COC(=O)c3cncc(Br)c3)CN(C)[C@@H]1Cc1cn(C)c3cccc2c13	Tov-21-G	inactive
CN(C)CCOC(=O)C(c1ccccc1)C1(O)CCCC1 (stereo unspecified)	Tov-21-G	inactive
COc1cc(C(=O)N2CCCCCCC2)cc(OC)c1OC	Tov-21-G	inactive
CC(=O)O[C@H]1C[C@@H]2CC[C@@H]3[C@H](CC[C@@]4(C)[C@H]3C[C@H]([N+]3(C)CCCCC3)[C@@H]4OC(C)=O)[C@@]2(C)C[C@@H]1N1CCCCC1	Tov-21-G	inactive
COc1ccc2c(c1)c1c3n2CCN(C)C3=NCC1	Tov-21-G	inactive
OC1C(O)C(O)C(O)C(O)C1O (stereo unspecified)	Tov-21-G	inactive

Task: Just curious, what result did CC1CCc2c(N3CCC(O)CC3)c(F)cc3c(=O)c(C(=O)O)cn1c23 (stereo unspecified) get here?
Output: inactive

###

# test summary: qHTS assay to identify small molecule inhibitors of chordoma cells - UCH-2 (AID 1259356)
# recorded conditions: UCH-2 chordoma viability, CellTiter-Glo ATP luminescence, 48 h; series mostly up to 46.1 µM
Records with an inconclusive call do not appear. The source made the active and inactive calls. Calls follow the shape of the dose curve; as a rule, active = well fitted cell-killing curve with a large enough effect; inconclusive = small, poorly fitted or top-dose-only effect; inactive = flat fitted curve, though single readings scatter.
Please answer using one outcome listed in active, inactive

compound	group
NC(=O)c1ccccc1O	inactive
CN(C)CCOC(=O)C(c1ccccc1)C1(O)CCCC1 (configuration not stated)	inactive
NC(N)=NN=C(/C=C/c1ccc([N+](=O)[O-])o1)/C=C/c1ccc([N+](=O)[O-])o1	active
CN1CCN(C2=Nc3cc(F)ccc3Cc3ccccc32)CC1	inactive
CC(=O)Nc1ccc(S(=O)(=O)Nc2ccc([N+](=O)[O-])cc2)cc1	inactive
CCN1CCCC(OC(=O)C(c2ccccc2)c2ccccc2)C1 (configuration not stated)	inactive
CCCCOC(=O)CC(CC(=O)OCCCC)(OC(C)=O)C(=O)OCCCC	inactive
N=C(N)N1CCc2ccccc2C1	inactive

Task: Just curious, what result did C#C[C@]1(O)CC[C@H]2[C@@H]3[C@H](C)CC4=C(CCC(=O)C4)[C@H]3CC[C@@]21C get here?
Output: inactive

Task: Just curious, what result did O=S(c1cc(Cl)cc(Cl)c1O)c1cc(Cl)cc(Cl)c1O get here?
Output: inactive

Task: Just curious, what result did Nc1nc(Cl)nc2c1ncn2[C@@H]1O[C@H](CO)[C@@H](O)[C@@H]1F get here?
Output: inactive

Task: Just curious, what result did Nc1ccc(C(=O)NCC(=O)O)cc1 get here?
Output: inactive

###

# Test system: HB3
# test summary: qHTS profiling for inhibitors of Plasmodium falciparum proliferation (AID 504749); note: nearly all actives have a fitted effect of over 60% in size; note: potency is the fitted concentration of half-maximal effect
# recorded conditions: P. falciparum in erythrocytes, SYBR Green DNA, 72 h; series mostly up to 28.7 µM
Results filed as inconclusive are left out. The source made the active and inactive calls. Calls follow the shape of the dose curve; as a rule, active = well fitted inhibition curve with a large enough effect; inconclusive = small, poorly fitted or top-dose-only effect; inactive = flat fitted curve, though single readings scatter.
measured property: Potency

Field: example entries. Status: answers known.
molecule	result
CCCCCCCCCCCCCC(=O)OC(C)C	inactive
O=C(O)c1ccc(S(=O)(=O)N(Cl)Cl)cc1	inactive
NCc1ccccc1Sc1ccccc1CO	inactive
NCCNc1cccc2ccccc12	inactive
CC(=O)OCC(=O)[C@H]1CC[C@H]2[C@@H]3CCC4=CC(=O)CC[C@]4(C)[C@H]3CC[C@]12C	inactive

Task: Complete the entry with Potency for CN1CCN(c2cc3c(cc2F)c(=O)c(C(=O)O)cn3-c2ccc(F)cc2)CC1
Output: inactive

Task: Complete the entry with Potency for Nc1ccc(S(=O)(=O)Nc2cnc3ccccc3n2)cc1
Output: inactive

Task: Complete the entry with Potency for COc1ccc(-c2cc(C(F)F)nn2-c2ccc(S(N)(=O)=O)cc2)cc1F
Output: inactive

Task: Complete the entry with Potency for Cc1cc(C)cc(OCC2CNC(=O)O2)c1 (centres undefined)
Output: inactive

Task: Complete the entry with Potency for CCN1/C(=C/C=C/c2sc3ccccc3[n+]2CC)Sc2ccccc21
Output: 251 nM (active)

###

# Tested on: TAB113
# test summary: qHTS profiling for inhibitors of Plasmodium falciparum proliferation (AID 504749); note: nearly all actives have a fitted effect of over 60% in size; note: potency is the fitted concentration of half-maximal effect
# recorded conditions: P. falciparum in erythrocytes, SYBR Green DNA, 72 h; series mostly up to 28.7 µM
Records with an inconclusive call do not appear. Calls of active or inactive are those of the source. Calls come from the whole dose curve; as a rule, active = well fitted inhibition curve with a large enough effect; inconclusive = small, poorly fitted or top-dose-only effect; inactive = flat fitted curve, though single readings scatter.
measured property: Potency

Field: example entries. Status: answers known.
compound	Potency
CO[C@]12C[C@@H](COC(=O)c3cncc(Br)c3)CN(C)[C@@H]1Cc1cn(C)c3cccc2c13	inactive
CCOC(=O)c1c(N)sc2c1CCN(Cc1ccccc1)C2	11.2 µM (active)
NS(=O)(=O)Cc1noc2ccccc12	inactive
O=C(O)CCC(=O)Nc1ccc(S(=O)(=O)Nc2nccs2)cc1	inactive
O=S(=O)(O)c1ccc(O)cc1	inactive
CCNC(=O)NCc1cccc(Cl)c1	inactive
NCc1ccccc1Sc1ccccc1CO	inactive
CCOC(=O)[C@H](CCc1ccccc1)N[C@@H](C)C(=O)N1[C@H](C(=O)O)C[C@H]2CCCC[C@@H]21	inactive
C[N+]1(C)CCC(=C(c2ccccc2)c2ccccc2)CC1	inactive
CCCCCCCCNC(C)C(O)c1ccc(SC(C)C)cc1 (configuration not stated)	0.355 µM (active)

Task: Complete the entry with Potency for CCCCNC(=O)NS(=O)(=O)c1ccc(N)cc1
Output: inactive

Task: Complete the entry with Potency for Oc1c(Cl)cc(Cl)c(Cl)c1Cc1c(O)c(Cl)cc(Cl)c1Cl
Output: 12.6 µM (active)

###

# Tested on: ATS95
# test summary: qHTS profiling for inhibitors of Plasmodium falciparum proliferation (AID 504749); note: nearly all actives have a fitted effect of over 60% in size
# recorded conditions: P. falciparum in erythrocytes, SYBR Green DNA, 72 h; series mostly up to 28.7 µM
Results filed as inconclusive are left out. Active and inactive are the calls of the source. Calls come from the whole dose curve; as a rule, active = well fitted inhibition curve with a large enough effect; inconclusive = small, poorly fitted or top-dose-only effect; inactive = flat fitted curve, though single readings scatter.
Please answer using one outcome listed in 1.0 (active), 0.0 (inactive)

Please review the following examples before continuing.
compound structure string	tested target	group
Cc1cccc(C)c1NC(=O)CN1CCCCCC1	ATS95	0.0
CCNC(=O)/C=C/c1cccc(Br)c1	ATS95	0.0
CCN(CC)CCNc1ccc(CO)c2sc3ccccc3c(=O)c12	ATS95	1.0
O=C(c1ccc(F)cc1)C1CCN(CCn2c(=S)[nH]c3ccccc3c2=O)CC1	ATS95	1.0
O=C(NC1CCN(CCc2c[nH]c3ccccc23)CC1)c1ccccc1	ATS95	0.0

Task: Just curious, what result did CCc1oc2ccccc2c1C(=O)c1cc(Br)c(O)c(Br)c1 get here?
Output: 0.0

Task: Just curious, what result did Cc1cc(-c2ccccc2)nnc1NCCN1CCOCC1 get here?
Output: 0.0

Task: Just curious, what result did Cc1cccc(C)c1NC(=O)c1ccccc1C(=O)O get here?
Output: 0.0

Task: Just curious, what result did CC(C)(C)NC[C@H](O)COc1cccc2c1CCCC2=O get here?
Output: 0.0

Task: Just curious, what result did Nc1nc(N)c(-c2ccccc2)s1 get here?
Output: 0.0

Task: Just curious, what result did Cc1c[nH]c2ccccc12 get here?
Output: 0.0

Task: Just curious, what result did COc1cc(N)c(Cl)cc1C(=O)NC1CCN(Cc2ccccc2)CC1 get here?
Output: 0.0

Task: Just curious, what result did COc1ccc(C(=O)c2ccccc2O)c(O)c1 get here?
Output: 0.0
